Answer each item with its documented growth.
Tested on: SF-539 CNS
Assay: NCI-60 one-dose screen, 48 h (100 = growth as untreated, 0 = no growth, -100 = all killed)
Settings: 10 µM unless noted
Procedure: Cells are grown in 96 well plates and exposed to the test compound for 48 hours. Compounds are tested at a single concentration, which is 10^-5 M for most compounds. The reported endpoint is percent growth (GI% or GIPRCNT), where numbers from 0 - 100% represent growth inhibition, and numbers from -100% - 0 represent cell death. For example, a value of 40 represents 60% growth inhibition. A value of 0 means no net growth occurred over the course of the experiment. […]
About 83,000 compounds went through this panel and 20% of them were active in at least one assay; those are over-represented in the sample as a whole.
Your answer should be a plain number; it is taken to be in %.

Which measured growth value corresponds to CCOC(=O)c1n[nH]n2c1nc(=O)c1cnn(C)c12 ?
103

Would you kindly share the measured growth for CC1(C)CCC(S(=O)(=O)c2ccc3c(c2)/C(=N\O)c2cc(S(=O)(=O)N4CCN(c5ccc(F)cc5O)CC4)ccc2-3)CC1 ?
-88.2

Entry under review: O=c1nc(Nc2nc3ccccc3s2)[nH]c(=O)c2ccccc12 . Reported growth?
97.5

Recorded growth of COc1cccc(/C=C2\COc3ccc(O)cc3C2=O)c1 , please.
88.5

Form field: reported growth of CN(C)c1ccc(/C=C/C(=O)c2ccccc2)cc1
89.3

----------
system: UO-31 renal; experiment: NCI-60 one-dose screen, 48 h (100 = growth as untreated, 0 = no growth, -100 = all killed); settings: 10 µM unless noted
The panel holds about 83,000 compounds, 20% with a hit somewhere; the sample as a whole holds those more often.
Exercise: state measured growth for each of the molecules provided.
Write the answer as a number in %, unit excluded.

Using the record for COc1cccc(/C=C/C(=O)c2cc3c(N)c(C(=O)Nc4ccccc4C)sc3nc2C)c1 , report its growth.
38.5

Which growth value belongs to Cn1ccnc1C(=O)/C=C/c1ccc(C(=O)Nc2ccc(F)cc2)cc1 ?
-14.2

Need growth of CC(=O)c1c(Nc2ccc(F)c(F)c2F)[nH]c2c(F)cc(F)cc2c1=O , thanks.
4.44

# growth lookup, item O=C(Cn1cc(CN2C(=O)c3ccccc3S2(=O)=O)nn1)Nc1cccc(Cl)c1
101

Data request, read-out growth, for Cn1cc(-c2csc(-c3cn(C(=O)OC(C)(C)C)c4ccccc34)n2)c2ccnc(Cl)c21
58.4

For the molecule shown here, COc1cc2c(cc1O)[C@@]1(C)[C@H](c3ccccc3Br)OC(=O)N1CC2 , give the reported growth.
85.3

Any idea what growth was measured for COc1ccc(-c2nnc(SCC(=O)Nc3ccc(/C(C)=N\O)cc3)n2-c2ccccc2)cc1OC ?
104

growth for COc1cccc(C(=O)OCC(O)C(=O)NC23CC4CC(CC(C4)C2)C3)c1 (stereo not given) ?
87.1

Looking for the measured growth of CC(C)c1ccc(C(=O)Nc2sc3cc(O)ccc3c2C#N)cc1 , can you help?
25.1

Request the reported growth associated with CN1CCN(Cc2cc(NC(=O)c3cccc(C#Cc4cccc5[nH]nc(N)c45)c3)cc(C(F)(F)F)c2)CC1
-17

Return reported growth; argument: COc1ccc(C(C)=O)cc1S(N)(=O)=O
90.7

Name the reported growth value associated with the molecule O=C(NCc1ccc2c(c1)OCO2)NCC1CCCC(CNC(=O)NCc2ccc3c(c2)OCO3)C1 (stereo not given)
95.7

What growth value was documented for this molecule, CCN1C(=O)N(CC)C2C1NN=C1SCC(=O)N12 (stereo not given) ?
58.8

Look up growth for this molecule: CCCNc1nc2ccccc2c2c(=O)c3cccc(Cl)c3sc12
66.9

What does the data say about its growth? Entry: O=C1/C(=C/c2ccc(C(F)(F)F)cc2)COc2ccc(O)cc21
44.8

Given the molecule O=C(/C=C/c1ccc(Br)cc1)c1ccc(-n2cc(CN3CCN(c4cc5c(cc4F)c(=O)c(C(=O)O)cn5C4CC4)CC3)nn2)cc1 , what is its reported growth?
65.7

I'd like to know its growth. The molecule in question is Cc1cc2oc(=O)cc(CP(=O)(O)O)c2cc1O
70.4

Quick one: growth of COc1ccc2nc3ccccc3c(NCc3ccccc3)c2c1 ?
13.8

Record request: growth value, item CCOC(=O)c1c(NC(=O)c2ccc(C(C)(C)C)cc2)sc2cc(O)ccc12
70.4

Which growth value belongs to COc1ccc(C2CC(c3ccc(Nc4nc(Nc5ccc(F)cc5)nc(Nc5ccc(F)cc5)n4)cc3)=NN2C(C)=O)cc1 (stereo not given) ?
97.7
